As shown below, each of these binders has a reported % Ra2 Binding Inhibition value.
# assay target: T1, human IL-13 R130Q variant (R110Q of the mature chain) (human, UniProt P35225 35-146, Biotinylated on amines (NHS-LC-biotin, 4:1) in ELISA, panning and competition assays. The letters are unchanged.)
# T1 construct: R130Q counts from Met 1 of the signal peptide, R110Q on the mature chain; Bought from Peprotech; also called IL-13 R110Q; b-R130Q
# T1 sequence (P35225 35-146 limits assumed, stated change not applied): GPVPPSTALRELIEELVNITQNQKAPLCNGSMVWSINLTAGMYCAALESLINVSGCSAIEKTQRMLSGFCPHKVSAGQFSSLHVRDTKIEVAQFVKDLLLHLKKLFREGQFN
# measurement protocol: Ra2 binding inhibition ELISA, mAb in crude HEK293 supernatant, IL-13 binding to IL-13Ra2
Give the quantity in %, number only.

Guide cases for % Ra2 Binding Inhibition, answers given:
mAb with Lc 2E12 (Lc6 variant) and Hc2 (antibody, V domains shown, human IgG1) VH: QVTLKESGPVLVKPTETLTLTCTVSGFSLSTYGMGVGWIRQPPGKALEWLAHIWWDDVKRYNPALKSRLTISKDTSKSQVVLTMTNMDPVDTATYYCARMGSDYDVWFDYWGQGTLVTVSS VL: EIVLTQSPATLSLSPGERATLSCRASKSISKYLAWYQQKPGQAPRLLIYSGSTLQSGIPARFSGSGSGTDFTLTISSLEPEDFAVYYCQQHDWSPYTFGQGTKLEIK | 83
mAb with Lc 2E01 (Lc6 variant, Table 8) and Hc2 (antibody, V domains shown, human IgG1) VH: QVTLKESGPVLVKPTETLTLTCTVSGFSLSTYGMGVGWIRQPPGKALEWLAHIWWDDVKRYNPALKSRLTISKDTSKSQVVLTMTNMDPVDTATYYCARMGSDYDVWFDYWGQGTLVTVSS VL: EIVLTQSPATLSLSPGERATLSCRASKSISKYLAWYQQKPGQAPRLLIYSGSTLQSGIPARFSGSGSGTDFTLTISSLEPEDFAVYYCQQHNEAPYTFGQGTKLEIK | 53.9

For mAb with Lc 3E05 (Lc6 variant) and Hc2 (antibody, V domains shown, human IgG1) VH: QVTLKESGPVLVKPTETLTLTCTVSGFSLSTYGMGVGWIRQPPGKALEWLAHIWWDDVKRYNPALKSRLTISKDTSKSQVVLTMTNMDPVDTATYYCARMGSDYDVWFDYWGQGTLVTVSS VL: EIVLTQSPATLSLSPGERATLSCRASKSISKYLAWYQQKPGQAPRLLIYSGSTLQSGIPARFSGSGSGTDFTLTISSLEPEDFAVYYCQQPLDTPYTFGQGTKLEIK , what is its reported % Ra2 Binding Inhibition? 70.8
